// data source = a melting point compilation (Tetko et al.; mined from patent text by program, amines drawn as free bases though some values may be those of a salt)

Reported melting point by item:

{"compound": "COc1cc2c(cc1Nc1ncc(Cl)c(Nc3ccccc3S(=O)(=O)N(C)C)n1)CCN(CC(=O)N1CCC1)CC2", "melting point": "75 to 87 °C"}
{"compound": "CCOC(=O)C1=C(N)N=C(OCC)C(C(=O)O)C1c1ccccc1[N+](=O)[O-] (centres undefined)", "melting point": "133 to 134 °C"}
{"compound": "Cc1csc(-c2ccc3c(c2)C=C(C(=O)Nc2ccc(CN(C)C4CCOCC4)cc2)CCO3)c1", "melting point": "147 to 148 °C"}
{"compound": "CSc1cnc(NC(=O)c2ccccc2OC(C)=O)s1", "melting point": "145 to 147 °C"}
